Endpoint Label: melting point

| Line Notation | melting point |
| --- | --- |
| Cc1nc2cc(NC(=O)c3cc4ncccc4n3Cc3cccc(F)c3)ccc2s1 | 263 to 265 °C |
| Cn1cnc2cc(NC(=O)c3cc4ncccc4n3Cc3cccc(F)c3)ccc21 | 277 to 281 °C |
| Cc1nc2cc(NC(=O)c3cc4cnccc4n3Cc3cccc(F)c3)ccc2n1C | 263 to 264 °C |
| Cn1ccc2cc(NC(=O)c3cc4cc(C(F)(F)F)cnc4n3Cc3cccc(F)c3)ccc21 | 229 to 231 °C |
| Cn1ccc2cc(NC(=O)c3cc4ccncc4n3Cc3cccc(F)c3)ccc21 | 213 to 214.5 °C |

Please examine the following record next.
Which melting point reading was recorded for the molecule Cc1nc2cc(NC(=O)c3cc4cc(F)cnc4n3Cc3cccc(F)c3)ccc2n1C ? 226 to 228 °C
